Assignment: determine reported z-score for the given sequences.
Test: Components of the Cytosolic LPS Sensing Pathway: Gene Identification via Genome-wide siRNA Screen;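 also: robust z of the log signal after scaling to non-targeting control siRNA wells of the plate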
Conditions: RAW264.7 macrophages, IL-1a HTRF, actives lie on both sides, screened at 100 nM (by protocol), cells primed 5 h with Pam3CSK4 first
Method: Non-canonical inflammasome activation by cytosolic LPS is a critical component of the host response to Gram-negative bacterial infection, however we lack a comprehensive understanding of the cellular processes that control this pathway. […] Lipofectamine RNAiMAX Transfection Reagent ([…]; Invitrogen) was added in […] serum-free, antibiotic-free media to plate wells using a Thermo Scientific Matrix WellMate and Microplate Stacker. […] The plates were read on an EnVision plate reader (PerkinElmer). […]
Screen size: about 53,000 sequences; about 3,700 (7%) were called active. The full list was thinned out, with actives kept by preference.
Answers are plain numbers.

• CCGGAGUUGAAACCUAAAATT against Hmgn5 = 0.524
• GCUCCUCAUGAUAUUGGCCTT against Nagk = 0.239
• GGUGAAAGUACUGAGGAAGTT against Rlim = 2.45
• GGCCCUUCCAGAAGAUACATT against Speer3 = -1.1
• GGAGAAGGACCAUCUAAAGTT against Cmah = 0.901

Below are some sequences; for each one, tell me its z-score.
1. GGACUUCUUCGAUUGUUCUTT against Chchd1
2. GUGCAAACGGCAAACAUUCTT against 1700001G17Rik
3. GGAGCUCUUUGACUUCUUGTT against Uqcrh
4. CCCUUCUCUGAUUGUCUGATT against Lce3b
5. GCCAGCUACUCUCUUGAGATT against Olfr419
6. GGUUUUUGGGAAUUGGCUUTT against Sfxn5
7. GGACAAUUGAAAACUGCCUTT against Gpd1
8. AGGAAUGCCCAGGUCUCAGTT against Lst1

Output:
1. 0.475
2. 1.89
3. 0.359
4. -0.452
5. -1.03
6. -0.0222
7. 2.95
8. -1.07

Below are some sequences; for each one, tell me its z-score.
1. GGGAAAGUUUCUGCAUUCUTT against Lce1d
2. GGACAGUUUAAGGACAACATT against Morn2
3. GGAACCUUCUCCAAAGCAATT against Rpgrip1
4. GCUAAGUUAAGCUUAAUACTT against Rbl1
5. CCCAUGGUCACUUAUAUAUTT against Jarid2

Output:
1: 2.07; 2: 0.18; 3: -2.45; 4: 3.33; 5: 0.109

Below are some sequences; for each one, tell me its z-score.
1. GCUCACAUGUUUUAGGUGATT against Poc5
2. GCAGUACAUAGGACAAUACTT against Ccdc97

Output:
0.756
0.0835
